Values were extracted from patent US20090253720A1.

experiment.summary: Pharmacokinetics of a single oral dose in a healthy subject
condition.summary: human, in vivo, 15 mg
measured.parameter: Tmax (h)
// note: answer is a bare numeric in h

Short answer for C=C(CC(NC(=O)c1ccc(CCc2ccc3nc(N)nc(N)c3c2)cc1)C(=O)O)C(=O)O (racemic) : Tmax was 2.25

* * *

experiment.summary: Pharmacokinetics of a single oral dose in a healthy subject
condition.summary: human, in vivo, 5 mg
measured.parameter: AUC(0-t) (ng·h/mL)
// note: answer is a bare numeric in ng·h/mL

Short answer for C=C(CC(NC(=O)c1ccc(CCc2ccc3nc(N)nc(N)c3c2)cc1)C(=O)O)C(=O)O (racemic) : AUC(0-t) was 8.92

* * *

experiment.summary: Pharmacokinetics of a single oral dose in a healthy subject
condition.summary: human, in vivo, 20 mg
measured.parameter: Cmax (ng/mL)
// note: answer is a bare numeric in ng/mL

Short answer for C=C(CC(NC(=O)c1ccc(CCc2ccc3nc(N)nc(N)c3c2)cc1)C(=O)O)C(=O)O (racemic) [CH-1504] : Cmax was 7.83

* * *

experiment.summary: Pharmacokinetics of a single oral dose in a healthy subject
condition.summary: human, in vivo, 7.5 mg
Procedure: The pharmacokinetic parameters of a single oral dose of the antifolate compound according to the invention were evaluated. […] The calculated pharmacokinetic values observed are provided below in Table 3. In Table 3, Cmax is the maximum measured plasma concentration of the antifolate compound administered and tmax is the time to Cmax. […]
measured.parameter: Tmax

Short answer for C=C(CC(NC(=O)c1ccc(CCc2ccc3nc(N)nc(N)c3c2)cc1)C(=O)O)C(=O)O (racemic) : Tmax was 1.5 h

* * *

experiment.summary: Pharmacokinetics of a single oral dose in a healthy subject
condition.summary: human, in vivo, 5 mg
measured.parameter: half-life (h)
// note: answer is a bare numeric in h

Short answer for C=C(CC(NC(=O)c1ccc(CCc2ccc3nc(N)nc(N)c3c2)cc1)C(=O)O)C(=O)O (racemic) : half-life was 3.21

* * *

experiment.summary: Plasma concentration after oral L- or D-CH-1504 in non-fasted rats (Example 14)
Type: in vivo
condition.summary: female, Lewis, rat, plasma, oral, 10 mg/kg, 1 h after 10 mg/kg oral, individual animals, read-out: Plasma conc. of L-CH-1504
measured.parameter: concentration at 1 h (ng/mL)
// note: answer is a bare numeric in ng/mL

Short answer for C=C(C[C@H](NC(=O)c1ccc(CCc2ccc3nc(N)nc(N)c3c2)cc1)C(=O)O)C(=O)O : concentration at 1 h was 144

* * *

experiment.summary: Pharmacokinetics of a single oral dose in a healthy subject
condition.summary: human, in vivo, 1 mg
measured.parameter: half-life

Short answer for C=C(CC(NC(=O)c1ccc(CCc2ccc3nc(N)nc(N)c3c2)cc1)C(=O)O)C(=O)O (racemic) [CH-1504] : half-life was 59.4 min

* * *

experiment.summary: Pharmacokinetics of a single oral dose in a healthy subject
condition.summary: human, in vivo, 15 mg
measured.parameter: Cmax (ng/mL)
// note: answer is a bare numeric in ng/mL

Short answer for C=C(CC(NC(=O)c1ccc(CCc2ccc3nc(N)nc(N)c3c2)cc1)C(=O)O)C(=O)O (racemic) [CH-1504] : Cmax was 6.57

* * *

experiment.summary: Pharmacokinetics of a single oral dose in a healthy subject
condition.summary: human, in vivo, 10 mg
Experimental: The pharmacokinetic parameters of a single oral dose of the antifolate compound according to the invention were evaluated. […] The calculated pharmacokinetic values observed are provided below in Table 3. In Table 3, Cmax is the maximum measured plasma concentration of the antifolate compound administered and tmax is the time to Cmax. […]
measured.parameter: Tmax (h)
// note: answer is a bare numeric in h

Short answer for C=C(CC(NC(=O)c1ccc(CCc2ccc3nc(N)nc(N)c3c2)cc1)C(=O)O)C(=O)O (racemic) [CH-1504] : Tmax was 2.01

* * *

experiment.summary: Pharmacokinetics of a single oral dose in a healthy subject
condition.summary: human, in vivo, 10 mg
measured.parameter: AUC(0-inf) (ng·h/mL)
// note: answer is a bare numeric in ng·h/mL

Short answer for C=C(CC(NC(=O)c1ccc(CCc2ccc3nc(N)nc(N)c3c2)cc1)C(=O)O)C(=O)O (racemic) : AUC(0-inf) was 26

* * *

experiment.summary: Pharmacokinetics of a single oral dose in a healthy subject
condition.summary: human, in vivo, 20 mg
measured.parameter: half-life (h)
// note: answer is a bare numeric in h

Short answer for C=C(CC(NC(=O)c1ccc(CCc2ccc3nc(N)nc(N)c3c2)cc1)C(=O)O)C(=O)O (racemic) : half-life was 3.91

* * *

experiment.summary: Pharmacokinetics of a single oral dose in a healthy subject
condition.summary: human, in vivo, 7.5 mg
measured.parameter: AUC(0-t) (ng·h/mL)
// note: answer is a bare numeric in ng·h/mL

Short answer for C=C(CC(NC(=O)c1ccc(CCc2ccc3nc(N)nc(N)c3c2)cc1)C(=O)O)C(=O)O (racemic) [CH-1504] : AUC(0-t) was 6.63

* * *

experiment.summary: Pharmacokinetics of a single oral dose in a healthy subject
condition.summary: human, in vivo, 7.5 mg
measured.parameter: half-life

Short answer for C=C(CC(NC(=O)c1ccc(CCc2ccc3nc(N)nc(N)c3c2)cc1)C(=O)O)C(=O)O (racemic) [CH-1504] : half-life was 2.71 h

* * *

experiment.summary: Pharmacokinetics of a single oral dose in a healthy subject
condition.summary: human, in vivo, 1 mg
measured.parameter: Tmax (h)
// note: answer is a bare numeric in h

Short answer for C=C(CC(NC(=O)c1ccc(CCc2ccc3nc(N)nc(N)c3c2)cc1)C(=O)O)C(=O)O (racemic) : Tmax was 2.26

* * *

experiment.summary: Pharmacokinetics of a single oral dose in a healthy subject
condition.summary: human, in vivo, 20 mg
measured.parameter: AUC(0-t)

Short answer for C=C(CC(NC(=O)c1ccc(CCc2ccc3nc(N)nc(N)c3c2)cc1)C(=O)O)C(=O)O (racemic) : AUC(0-t) was 34.6 ng·h/mL

* * *

experiment.summary: Pharmacokinetics of a single oral dose in a healthy subject
condition.summary: human, in vivo, 10 mg
measured.parameter: AUC(0-t) (µg·h/mL)
// note: answer is a bare numeric in µg·h/mL

Short answer for C=C(CC(NC(=O)c1ccc(CCc2ccc3nc(N)nc(N)c3c2)cc1)C(=O)O)C(=O)O (racemic) [CH-1504] : AUC(0-t) was 0.0252
